Tested on: HeLa Kyoto
Assay: thermal stability score vs G1/S (z-score of summed log2 fold changes over temperatures); higher = more thermally stable than in G1/S
Details: cell cycle stage: early G1 (4.5 h after nocodazole release)
Attribute: thermal stability score
# output: bare number, no unit

Solved cases below.
MTELQSALLLRRQLAELNKNPVEGFSAGLIDDNDLYRWEVLIIGPPDTLYEGGVFKAHLTFPKDYPLRPPKMKFITEIWHPNVDKNGDVCISILHEPGEDKYGYEKPEERWLPIHTVETIMISVISMLADPNGDSPANVDAAKEWREDRNGEFKRKVARCVRKSQETAFE [UBE2G1]
-0.274
MSLTSSSSVRVEWIAAVTIAAGTAAIGYLAYKRFYVKDHRNKAMINLHIQKDNPKIVHAFDMEDLGDKAVYCRCWRSKKFPFCDGAHTKHNEETGDNVGPLIIKKKET [CISD1]
-0.277
MATDELATKLSRRLQMEGEGGGETPEQPGLNGAAAAAAGAPDEAAEALGSADCELSAKLLRRADLNQGIGEPQSPSRRVFNPYTEFKEFSRKQIKDMEKMFKQYDAGRDGFIDLMELKLMMEKLGAPQTHLGLKNMIKEVDEDFDSKLSFREFLLIFRKAAAGELQEDSGLCVLARLSEIDVSSEGVKGAKSFFEAKVQAINVSSRFEEEIKAEQEERKKQAEEMKQRKAAFKELQSTFK [EFHD2]
1.76
MALLALLLVVALPRVWTDANLTARQRDPEDSQRTDEGDNRVWCHVCERENTFECQNPRRCKWTEPYCVIAAVKIFPRFFMVAKQCSAGCAAMERPKPEEKRFLLEEPMPFFYLKCCKIRYCNLEGPPINSSVFKEYAGSMGESCGGLWLAILLLLASIAAGLSLS [LY6K]
2.6
MFVARSIAADHKDLIHDVSFDFHGRRMATCSSDQSVKVWDKSESGDWHCTASWKTHSGSVWRVTWAHPEFGQVLASCSFDRTAAVWEEIVGESNDKLRGQSHWVKRTTLVDSRTSVTDVKFAPKHMGLMLATCSADGIVRIYEAPDVMNLSQWSLQHEISCKLSCSCISWNPSSSRAHSPMIAVGSDDSSPNAMAKVQIFEYNENTRKYAKAETLMTVTDPVHDIAFAPNLGRSFHILAIATKDVRIFTLKPVRKELTSSGGPTKFEIHIVAQFDNHNSQVWRVSWNITGTVLASSGDDGCVRLWKANYMDNWKCTGILKGNGSPVNGSSQQGTSNPSLGSTIPSLQNSLNGSSAGRKHS [SEH1L]
-3.19
MASAGDTQAGPRDAADQNFDYMFKLLLIGNSSVGKTSFLFRYADDSFTPAFVSTVGIDFKVKTVYRHDKRIKLQIWDTAGQERYRTITTAYYRGAMGFLLMYDIANQESFAAVQDWATQIKTYSWDNAQVILVGNKCDLEDERVVPAEDGRRLADDLGFEFFEASAKENINVKQVFERLVDVICEKMNESLEPSSSSGSNGKGPAVGDAPAPQPSSCSC [RAB3D]
-1.66

--- query ---
// query So what's the measured thermal stability score for this one? MPQYQTWEEFSRAAEKLYLADPMKARVVLKYRHSDGNLCVKVTDDLVCLVYKTDQAQDVKKIEKFHSQLMRLMVAKEARNVTMETE [SRP9]
// result -2.84

====

Tested on: HeLa Kyoto
Test: solubility in G1/S (NP-40 vs SDS abundance) (log2 ratio); higher = more soluble
Conditions: cell cycle stage: G1/S
Readout label: solubility in G1/S (log2)
Reply briefly: the number, and no unit.

Known results for sequences:
MPKVKRSRKAPPDGWELIEPTLDELDQKMREAETEPHEGKRKVESLWPIFRIHHQKTRYIFDLFYKRKAISRELYEYCIKEGYADKNLIAKWKKQGYENLCCLRCIQTRDTNFGTNCICRVPKSKLEVGRIIECTHCGCRGCSG [BUD31]
-0.0954
MMWRPSVLLLLLLLRHGAQGKPSPDAGPHGQGRVHQAAPLSDAPHDDAHGNFQYDHEAFLGREVAKEFDQLTPEESQARLGRIVDRMDRAGDGDGWVSLAELRAWIAHTQQRHIRDSVSAAWDTYDTDRDGRVGWEELRNATYGHYAPGEEFHDVEDAETYKKMLARDERRFRVADQDGDSMATREELTAFLHPEEFPHMRDIVIAETLEDLDRNKDGYVQVEEYIADLYSAEPGEEEPAWVQTERQQFRDFRDLNKDGHLDGSEVGHWVLPPAQDQPLVEANHLLHESDTDKDGRLSKAEILGNWNMFVGSQATNYGEDLTRHHDEL [RCN3]
0.0765
MEEVPHDCPGADSAQAGRGASCQGCPNQRLCASGAGATPDTAIEEIKEKMKTVKHKILVLSGKGGVGKSTFSAHLAHGLAEDENTQIALLDIDICGPSIPKIMGLEGEQVHQSGSGWSPVYVEDNLGVMSVGFLLSSPDDAVIWRGPKKNGMIKQFLRDVDWGEVDYLIVDTPPGTSDEHLSVVRYLATAHIDGAVIITTPQEVSLQDVRKEINFCRKVKLPIIGVVENMSGFICPKCKKESQIFPPTTGGAELMCQDLEVPLLGRVPLDPLIGKNCDKGQSFFIDAPDSPATLAYRSIIQRIQEFCNLHQSKEENLISS [NUBP1]
0.398

// query Please report the recorded solubility in G1/S (log2) for MAGEEINEDYPVEIHEYLSAFENSIGAVDEMLKTMMSVSRNELLQKLDPLEQAKVDLVSAYTLNSMFWVYLATQGVNPKEHPVKQELERIRVYMNRVKEITDKKKAGKLDRGAASRFVKNALWEPKSKNASKVANKGKSKS [C1D] .
// result -0.223

// query Which value of solubility in G1/S (log2) has been reported for MERPSLRALLLGAAGLLLLLLPLSSSSSSDTCGPCEPASCPPLPPLGCLLGETRDACGCCPMCARGEGEPCGGGGAGRGYCAPGMECVKSRKRRKGKAGAAAGGPGVSGVCVCKSRYPVCGSDGTTYPSGCQLRAASQRAESRGEKAITQVSKGTCEQGPSIVTPPKDIWNVTGAQVYLSCEVIGIPTPVLIWNKVKRGHYGVQRTELLPGDRDNLAIQTRGGPEKHEVTGWVLVSPLSKEDAGEYECHASNSQGQASASAKITVVDALHEIPVKKGEGAEL [IGFBP7] in the records?
// result 0.0794

// query Consider the sequence MSKQQPTQFINPETPGYVGFANLPNQVHRKSVKKGFEFTLMVVGESGLGKSTLINSLFLTDLYPERVIPGAAEKIERTVQIEASTVEIEERGVKLRLTVVDTPGYGDAINCRDCFKTIISYIDEQFERYLHDESGLNRRHIIDNRVHCCFYFISPFGHGLKPLDVAFMKAIHNKVNIVPVIAKADTLTLKERERLKKRILDEIEEHNIKIYHLPDAESDEDEDFKEQTRLLKASIPFSVVGSNQLIEAKGKKVRGRLYPWGVVEVENPEHNDFLKLRTMLITHMQDLQEVTQDLHYENFRSERLKRGGRKVENEDMNKDQILLEKEAELRRMQEMIARMQAQMQMQMQGGDGDGGALGHHV [SEPT2] and give its measured solubility in G1/S (log2).
// result 0.276

// query Return reported solubility in G1/S (log2); argument: MPQKDPCQKQACEIQKCLQANSYMESKCQAVIQELRKCCAQYPKGRSVVCSGFEKEEEENLTRKSASK [CMC4]
// result -1.4

// query State the recorded solubility in G1/S (log2) for this entry: MAGENFATPFHGHVGRGAFSDVYEPAEDTFLLLDALEAAAAELAGVEICLEVGSGSGVVSAFLASMIGPQALYMCTDINPEAAACTLETARCNKVHIQPVITDLVKGLLPRLTEKVDLLVFNPPYVVTPPQEVGSHGIEAAWAGGRNGREVMDRFFPLVPDLLSPRGLFYLVTIKENNPEEILKIMKTKGLQGTTALSRQAGQETLSVLKFTKS [N6AMT1]
// result 0.483

// query Request the reported solubility in G1/S (log2) associated with MGAAHSASEEVRELEGKTGFSSDQIEQLHRRFKQLSGDQPTIRKENFNNVPDLELNPIRSKIVRAFFDNRNLRKGPSGLADEINFEDFLTIMSYFRPIDTTMDEEQVELSRKEKLRFLFHMYDSDSDGRITLEEYRNVVEELLSGNPHIEKESARSIADGAMMEAASVCMGQMEPDQVYEGITFEDFLKIWQGIDIETKMHVRFLNMETMALCH [TESC]
// result 0.101

// query I am curious: what solubility in G1/S (log2) value has been reported for MSFLKSFPPPGPAEGLLRQQPDTEAVLNGKGLGTGTLYIAESRLSWLDGSGLGFSLEYPTISLHALSRDRSDCLGEHLYVMVNAKFEEESKEPVADEEEEDSDDDVEPITEFRFVPSDKSALEAMFTAMCECQALHPDPEDEDSDDYDGEEYDVEAHEQGQGDIPTFYTYEEGLSHLTAEGQATLERLEGMLSQSVSSQYNMAGVRTEDSIRDYEDGMEVDTTPTVAGQFEDADVDH [CLNS1A] ?
// result -0.106

// query Would you kindly share the measured solubility in G1/S (log2) for MEADSPAGPGAPEPLAEGAAAEFSSLLRRIKGKLFTWNILKTIALGQMLSLCICGTAITSQYLAERYKVNTPMLQSFINYCLLFLIYTVMLAFRSGSDNLLVILKRKWWKYILLGLADVEANYVIVRAYQYTTLTSVQLLDCFGIPVLMALSWFILHARYRVIHFIAVAVCLLGVGTMVGADILAGREDNSGSDVLIGDILVLLGASLYAISNVCEEYIVKKLSRQEFLGMVGLFGTIISGIQLLIVEYKDIASIHWDWKIALLFVAFALCMFCLYSFMPLVIKVTSATSVNLGILTADLYSLFVGLFLFGYKFSGLYILSFTVIMVGFILYCSTPTRTAEPAESSVPPVTSIGIDNLGLKLEENLQETHSAVL [SLC35F2] ?
// result 0.147
